Target: Cyclooxygenase-1 (COX-1) (Ovis aries, UniProt P05979)
Construct: purchased Cayman Chemical Company 560101
Sequence (P05979 25-600): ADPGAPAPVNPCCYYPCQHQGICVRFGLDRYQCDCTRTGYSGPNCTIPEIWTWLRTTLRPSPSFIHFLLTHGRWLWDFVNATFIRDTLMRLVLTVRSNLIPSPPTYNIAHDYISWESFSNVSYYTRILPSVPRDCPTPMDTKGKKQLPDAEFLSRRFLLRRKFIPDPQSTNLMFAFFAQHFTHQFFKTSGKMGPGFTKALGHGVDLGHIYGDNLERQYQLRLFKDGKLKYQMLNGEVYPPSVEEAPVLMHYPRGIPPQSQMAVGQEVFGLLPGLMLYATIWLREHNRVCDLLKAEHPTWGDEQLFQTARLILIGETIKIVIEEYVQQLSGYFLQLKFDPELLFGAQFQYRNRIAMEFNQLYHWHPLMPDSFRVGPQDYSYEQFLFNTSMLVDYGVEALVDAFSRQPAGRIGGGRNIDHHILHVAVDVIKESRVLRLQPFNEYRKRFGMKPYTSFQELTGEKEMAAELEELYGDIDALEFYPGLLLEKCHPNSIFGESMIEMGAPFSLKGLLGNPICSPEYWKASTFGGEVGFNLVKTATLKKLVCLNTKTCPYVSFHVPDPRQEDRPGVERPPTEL
Test: COX Inhibitor Screening Assay Kit, COX-1
Type: biochemical
Settings: 50 μM compound; read-out: Inhibitory effect against COX-1 at 50 μM (% inhibition)
resultType: inhibition at 50 µM

[
  {
    "smilesEntry": "COc1ccc(-c2nc(C(=O)N3CCC(F)CC3)cn2-c2ccccn2)cn1",
    "result": "-1.4%"
  },
  {
    "smilesEntry": "CN1CCN(C(=O)c2nc(-c3ccccc3)c(-c3ccccc3)o2)CC1",
    "result": "3.1%"
  },
  {
    "smilesEntry": "COc1ccc(-n2nc(C(=O)N3CCC(F)(F)CC3)nc2-c2ccc(C)cn2)cn1",
    "result": "46.9%"
  },
  {
    "smilesEntry": "COc1ccc(-n2nc(C(=O)N3CCC(F)(F)CC3)nc2-c2ccc(F)cn2)cn1",
    "result": "35.2%"
  },
  {
    "smilesEntry": "COc1ccc(-c2nc(C(=O)N3CCC(F)(F)CC3)cn2-c2ccccn2)cn1",
    "result": "3.4%"
  },
  {
    "smilesEntry": "Cc1ccc(-n2cc(C(=O)N3CCN(C)C(=O)C3)nc2-c2ccc(C)nc2)cc1",
    "result": "5.6%"
  }
]

---

Target: Cyclooxygenase-2 (COX-2) (Homo sapiens)
Construct: purchased Cayman Chemical Company 560121
Sequence (P35354 18-604): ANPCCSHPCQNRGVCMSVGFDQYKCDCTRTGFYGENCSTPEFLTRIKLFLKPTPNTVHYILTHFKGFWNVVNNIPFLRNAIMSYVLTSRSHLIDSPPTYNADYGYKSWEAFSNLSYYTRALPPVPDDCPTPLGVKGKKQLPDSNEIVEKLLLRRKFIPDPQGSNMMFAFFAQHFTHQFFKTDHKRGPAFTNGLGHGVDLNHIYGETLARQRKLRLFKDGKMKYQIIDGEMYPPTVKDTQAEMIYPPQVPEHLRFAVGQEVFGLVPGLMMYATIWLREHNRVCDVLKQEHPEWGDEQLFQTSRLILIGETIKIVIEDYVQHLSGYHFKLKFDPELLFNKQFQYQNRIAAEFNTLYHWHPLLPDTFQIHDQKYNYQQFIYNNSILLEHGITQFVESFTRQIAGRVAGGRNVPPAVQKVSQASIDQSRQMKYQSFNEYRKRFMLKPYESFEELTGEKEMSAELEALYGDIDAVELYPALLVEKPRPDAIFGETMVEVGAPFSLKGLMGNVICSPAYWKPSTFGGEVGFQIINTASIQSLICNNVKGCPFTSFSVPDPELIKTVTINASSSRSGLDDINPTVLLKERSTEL
Experiment: COX Inhibitor Screening Assay Kit, COX-2
Format: biochemical
Settings: 50 μM compound; read-out: Inhibitory effect against COX-2 at 50 μM (% inhibition)
Structures can show the parent of a compound that is named as a salt.
Entries annotated with measured inhibition at 50 µM
resultType: inhibition at 50 µM

[
  {
    "compound": "COc1ccc(-c2nc(C(=O)N3CCC(F)(F)CC3)cn2-c2ccccn2)cn1",
    "result": "7.5%"
  },
  {
    "compound": "COc1ccc(-c2nc(C(=O)N3CCN(C)CC3)cn2-c2ccc(F)cc2)cn1",
    "result": "23.4%"
  },
  {
    "compound": "COc1ccc(-c2nc(C(=O)N3CCN(C)CC3)nn2-c2ccc(C)cc2)cn1 [Example 38, hydrochloride]",
    "result": "10.7%"
  },
  {
    "compound": "COc1ccc(-c2nc(C(=O)N3CCC(F)CC3)cn2-c2ccccn2)cn1",
    "result": "4.5%"
  },
  {
    "compound": "CN1CCN(C(=O)c2nc(-c3ccccc3)c(-c3ccccc3)o2)CC1",
    "result": "-8.7%"
  },
  {
    "compound": "Cc1ccc(-n2cc(C(=O)N3CCN(C)C(=O)C3)nc2-c2ccc(C)nc2)cc1",
    "result": "-2.2%"
  },
  {
    "compound": "COc1ccc(-n2nc(C(=O)N3CCN(C)CC3)nc2-c2ccc(C)cc2)cn1 [Example 37, hydrochloride]",
    "result": "-0.8%"
  }
]
